Hey, just so you know, these numbers are from paper PMC7144919.

# measured target: Sa Hfq (Staphylococcus aureus, UniProt A0A0H3JV59 1-77)
# test details: fluorescence polarization
value kind: Kd
Field: value (include unit after the number)

Name the reported Kd value associated with the binder xtal DNA, 30 bp with three 6-bp A-tracts (dsDNA) DNA 1: CGGCAAAAAACGGCAAAAAACGGCAAAAAA DNA 2: TTTTTTGCCGTTTTTTGCCGTTTTTTGCCG 6.4 µM
